- system name: Sphingosine 1-phosphate receptor 3 (Homo sapiens)
- assay method text: Agonist activity at human S1P3 receptor assessed as stimulation of [35S]GTPgamma binding
Below, each entry is listed with its recorded EC50.

Lookup: For the compound CCc1ccccc1Oc1ccc(-c2nc(-c3sc(CN4CC(C(=O)O)C4)cc3CC)no2)cc1 , what EC50 is on record?
Found: 10 µM

Lookup: Dear colleague, I am looking for the recorded EC50 of the following compound: CCCc1ccccc1Oc1ccc(-c2nc(-c3sc(CN4CC(C(=O)O)C4)cc3CC)no2)cc1
Found: > 20 µM

Lookup: Give the measured EC50 of Cc1cc(-c2noc(-c3ccc(Oc4ccccc4)cc3)n2)sc1CN1CC(C(=O)O)C1 .
Found: > 20 µM

Lookup: So what does the record say about EC50 for O=C(O)C1CN(Cc2cc(-c3noc(-c4ccc(Oc5ccccc5)cc4)n3)cs2)C1 ?
Found: 4.6 µM

Lookup: Entry CCc1cc(CN2CC(C(=O)O)C2)sc1-c1noc(-c2ccc(Oc3ccccc3)c(OC)c2)n1 : reported EC50 = ?
Found: > 20 µM

----------
pEC50 for assorted compounds
- system name: Sphingosine 1-phosphate receptor 3 (Homo sapiens, UniProt Q99500)
- Sequence (Q99500 whole entry): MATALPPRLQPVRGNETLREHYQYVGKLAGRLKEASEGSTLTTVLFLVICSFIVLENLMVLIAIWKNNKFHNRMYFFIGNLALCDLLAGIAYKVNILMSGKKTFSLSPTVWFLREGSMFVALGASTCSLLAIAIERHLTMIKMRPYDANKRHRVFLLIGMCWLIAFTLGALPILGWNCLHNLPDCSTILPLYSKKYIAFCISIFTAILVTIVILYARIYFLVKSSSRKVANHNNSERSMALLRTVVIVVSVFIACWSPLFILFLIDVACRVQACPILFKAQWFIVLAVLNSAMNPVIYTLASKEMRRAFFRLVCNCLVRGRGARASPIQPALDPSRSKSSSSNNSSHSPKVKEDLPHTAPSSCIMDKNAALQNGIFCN
- assay method text: Agonist activity at human S1P3 receptor assessed as stimulation of [35S]GTPgamma binding
The read-out pEC50 is expressed as -log10 of concentration in moles per litre.

The cases that follow already have their pEC50 on record.
CCc1cc(CN2CC(C(=O)O)C2)sc1-c1noc(-c2ccc(Oc3ccccc3C)cc2)n1	5.35
Cc1ccc(Oc2ccc(-c3nc(-c4csc(CN5CC(C(=O)O)C5)c4)no3)cc2)cc1	4.92
CC(C)c1cc(CN2CC(C(=O)O)C2)sc1-c1noc(-c2ccc(Oc3ccccc3)cc2)n1	4.82
O=C(O)C1CN(Cc2cc(-c3noc(-c4cc(-c5ccccc5)c(C(F)(F)F)s4)n3)cs2)C1	6.10

Lookup: Checklist item: pEC50 tested on Sphingosine 1-phosphate receptor 3 (Homo sapiens, UniProt Q99500), entry CCc1cc(CN2CC(C(=O)O)C2)sc1-c1noc(-c2ccc(Oc3ccccc3)c(C)c2)n1 , value?
Found: 5.22

----------
- system name: Sphingosine 1-phosphate receptor 3 (Homo sapiens, UniProt Q99500)
- assay method text: Agonist activity at human S1P3 receptor assessed as stimulation of [35S]GTPgamma binding
attribute measured: pEC50
pEC50 here: minus log base 10 of the concentration, concentration in moles per litre.

CCc1cc(CN2CC(C(=O)O)C2)sc1-c1noc(-c2ccc(Oc3ccccc3OC)cc2)n1	4.82

Lookup: Need pEC50, item O=C(O)C1CN(Cc2ccc(-c3noc(-c4ccc(Oc5ccccc5)cc4)n3)s2)C1
Found: 6.05

Lookup: GET /values?readout=pEC50&item= CCCc1cc(CN2CC(C(=O)O)C2)sc1-c1noc(-c2ccc(Oc3ccccc3)cc2)n1
Found: 4.89

Lookup: If you can, please state the reported pEC50 value of Cc1ccccc1Oc1ccc(-c2nc(-c3csc(CN4CC(C(=O)O)C4)c3)no2)cc1 .
Found: 5.70

----------
- system name: UniProtKB Q99500
- assay method text: Agonist activity at human S1P3 receptor assessed as stimulation of [35S]GTPgamma binding
attribute measured: EC50

Reference set, count: 3
CCc1cc(CN2CC(C(=O)O)C2)sc1-c1noc(-c2ccc(Oc3ccccc3)c(Cl)c2)n1	> 20 µM
Cc1cc(CN2CC(C(=O)O)C2)sc1-c1noc(-c2ccc(Oc3ccccc3)cc2)n1	> 20 µM
CCc1cc(CN2CC(C(=O)O)C2)sc1-c1noc(-c2ccc(Oc3ccccc3Cl)cc2)n1	> 20 µM

Lookup: Record request: EC50 value, item CCc1cc(CN2CC(C(=O)O)C2)sc1-c1noc(-c2ccc(Oc3ccccc3)cc2)n1
Found: > 20 µM
